target: RORγ-LBD (Homo sapiens (Human)); experiment: RORγ-Ligand Binding Domain (LBD) TR-FRET Assay Protocol II; type: biochemical; conditions: purified RORγ-LBD, SRC1 peptide, overnight at 4° C.
Sequence (P51449 269-508): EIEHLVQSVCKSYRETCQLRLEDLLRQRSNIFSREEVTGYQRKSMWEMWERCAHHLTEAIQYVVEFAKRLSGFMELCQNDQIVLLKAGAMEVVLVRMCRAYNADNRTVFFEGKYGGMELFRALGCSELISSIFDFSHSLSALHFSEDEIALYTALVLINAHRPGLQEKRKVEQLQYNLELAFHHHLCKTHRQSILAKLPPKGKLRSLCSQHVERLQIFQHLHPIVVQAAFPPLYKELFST
# pEC50 per record follows
Quick note: pEC50 means taking -log10 of the concentration in moles per liter.

1) CC1COc2ncc(NC(=O)c3c(F)cccc3Cl)cc2N1S(=O)(=O)c1cccc(C#N)c1 (stereo not drawn)    6.97
2) COC(=O)N[C@@H]1Cc2ncc(NC(=O)c3c(Cl)cccc3Cl)cc2N(S(=O)(=O)c2cccc(C)c2)C1    7.60
3) CCc1cccc(S(=O)(=O)N2C[C@H](C)Oc3ncc(NC(=O)c4c(F)cccc4Cl)cc32)c1    8.00
4) Cc1nn(C(F)F)cc1S(=O)(=O)N1C[C@@H](NC(=O)C(F)(F)F)Cc2ncc(NC(=O)c3c(F)cccc3Cl)cc21    7.92
5) CN1CCN(C[C@H]2CN(S(=O)(=O)c3cccc(Cl)c3)c3cc(NC(=O)c4c(Cl)cccc4Cl)cnc3O2)CC1    5.88
6) CCNC1Cc2ncc(NC(=O)c3c(Cl)cccc3Cl)cc2N(S(=O)(=O)c2cccc(C)c2)C1 (stereo not drawn)    6.26
7) C[C@H]1CN(S(=O)(=O)c2cccc(C3CC3)c2)c2cc(NC(=O)c3c(Cl)cccc3Cl)cnc2O1    8.15
8) C[C@H](O)C(=O)N[C@H]1Cc2ncc(NC(=O)c3c(Cl)cccc3Cl)cc2N(S(=O)(=O)c2cccc(C(F)(F)F)c2)C1    7.13

-- ask Identify the measured pEC50 of CN1CCN(C[C@H]2CN(S(=O)(=O)c3cccc(Cl)c3)c3cc(NC(=O)c4c(Cl)cccc4Cl)cnc3O2)CC1=O for RORγ-LBD (Homo sapiens (Human)).
-- reply 7.28

-- ask Identify the measured pEC50 of CCOC(=O)N[C@H]1Cc2ncc(NC(=O)c3c(Cl)cccc3Cl)cc2N(S(=O)(=O)c2cccc(C(F)(F)F)c2)C1 for RORγ-LBD (Homo sapiens (Human)).
-- reply 7.59

====

# log10 of EC50 per record follows
target: UniProt:P51449; assay: RORγ-Ligand Binding Domain (LBD) TR-FRET Assay Protocol II; type: biochemical; conditions: purified RORγ-LBD, SRC1 peptide, overnight at 4° C.
// stored as log10 of EC50 expressed in nM

Example entries and their recorded answers appear below.
1. O=C(Nc1cnc2cnn(S(=O)(=O)c3cccc(C(F)(F)F)c3)c2c1)c1c(F)cccc1Cl    1.40
2. CCOC(=O)N[C@@H]1Cc2ncc(NC(=O)c3c(Cl)cccc3Cl)cc2N(S(=O)(=O)c2cccc(C(F)(F)F)c2)C1    1.26
3. O=C(Nc1cnc2c(c1)N(S(=O)(=O)c1ccc(F)cc1)CCC2)c1c(F)cccc1F    2.31

-- ask If you can, please state the reported log10 of EC50 value of CC(=O)NC1Cc2ncc(NC(=O)c3c(Cl)cccc3Cl)cc2N(S(=O)(=O)c2cccc(Cl)c2)C1 (stereo not shown) .
-- reply 1.86

-- ask If you can, please state the reported log10 of EC50 value of Cc1cccc(S(=O)(=O)N2C[C@H](C)Oc3ncc(NC(=O)[C@@H](C)c4ccccc4)cc32)c1 .
-- reply 1.86

-- ask If you can, please state the reported log10 of EC50 value of CC(=O)NC[C@H]1CN(S(=O)(=O)c2cccc(C3CC3)c2)c2cc(NC(=O)c3c(Cl)cccc3Cl)cnc2O1 [Compound 18] .
-- reply 1.11

-- ask If you can, please state the reported log10 of EC50 value of Cc1nn(C(F)F)cc1S(=O)(=O)N1C[C@H](CO)Cc2ncc(NC(=O)[C@@H](C)C(C)(C)C)cc21 .
-- reply 4.00
